System: PDE9A isoform b (Homo sapiens, UniProt O76083)
Construct: they are full-length with N-terminal GST tag; GST (N)
Sequence (O76083 1-533 isoform O76083-2): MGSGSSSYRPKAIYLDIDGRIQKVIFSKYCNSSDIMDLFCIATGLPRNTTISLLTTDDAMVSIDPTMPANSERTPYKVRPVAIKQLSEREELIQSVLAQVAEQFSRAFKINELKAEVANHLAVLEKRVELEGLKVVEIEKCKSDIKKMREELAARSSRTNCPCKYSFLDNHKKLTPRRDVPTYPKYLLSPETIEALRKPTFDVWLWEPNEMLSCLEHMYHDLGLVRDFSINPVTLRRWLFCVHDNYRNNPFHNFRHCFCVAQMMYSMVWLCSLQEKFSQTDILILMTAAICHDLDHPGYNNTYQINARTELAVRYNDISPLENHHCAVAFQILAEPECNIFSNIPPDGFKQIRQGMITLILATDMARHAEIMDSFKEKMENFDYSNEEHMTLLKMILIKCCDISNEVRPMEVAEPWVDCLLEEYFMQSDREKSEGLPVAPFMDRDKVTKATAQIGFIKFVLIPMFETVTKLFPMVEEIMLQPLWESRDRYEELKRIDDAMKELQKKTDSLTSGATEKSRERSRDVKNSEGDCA
Protocol summary: PDE enzyme activity assay (HTRF cGMP), PDE9A
Test settings: recombinant enzyme; read-out: PDE9A inhibition (IC50)
pIC50: −log10 of the molar value.

| Molecule | System | pIC50 |
| --- | --- | --- |
| CCCc1nc(C)c2c(=O)[nH]c(-c3cc(S(=O)(=O)N4CCN(CCCC(=O)NO)CC4)ccc3OCC)nn12 | PDE9A isoform b (Homo sapiens, UniProt O76083) | 6.00 to 8.00 |
| CC(c1nc2c(cnn2C2CCOCC2)c(=O)[nH]1)N1CC(Cc2ccc(C(=O)NO)cc2)C1 (stereo not drawn) | PDE9A isoform b (Homo sapiens, UniProt O76083) | 6.00 to 8.00 |
| CC(c1nc2c(cnn2C2CCOCC2)c(=O)[nH]1)N1CC(Cc2ccc(C(=O)NO)s2)C1 (stereo not drawn) | PDE9A isoform b (Homo sapiens, UniProt O76083) | 6.00 to 8.00 |
| C[C@@H]1CN(Cc2cnc(N3CCC(C(=O)NO)CC3)nc2)C[C@H]1c1nc2c(cnn2C2CCOCC2)c(=O)[nH]1 (racemic) | PDE9A isoform b (Homo sapiens, UniProt O76083) | 6.00 to 8.00 |
| CC(c1nc2c(cnn2C2CCOCC2)c(=O)[nH]1)N1CC(Oc2ccc(C(=O)NO)cc2)C1 (stereo not drawn) | PDE9A isoform b (Homo sapiens, UniProt O76083) | 6.00 to 8.00 |
| CCCc1nn(C)c2c(=O)[nH]c(-c3cc(OC4CCN(c5ncc(C(=O)NO)cn5)CC4)ccc3OCC)nc12 | PDE9A isoform b (Homo sapiens, UniProt O76083) | 5.00 to 6.00 |

###

List of pIC50 values.
System: PDE5A (Homo sapiens)
Construct: they are full-length with N-terminal GST tag; GST (N); purchased BPS Biosciences 60050; host or cells: baculovirus infected Sf9 cells
Protocol summary: PDE enzyme activity assay (HTRF cGMP), PDE5A
Assay type: biochemical
Test settings: recombinant enzyme; read-out: PDE5A1 inhibition (IC50)
pIC50: −log10 of the molar value.
Quantity kind: pIC50

| Molecule | Quantity kind | Recorded result |
| --- | --- | --- |
| CCCc1nn(C)c2c(=O)[nH]c(-c3cc(CC4CCC(CC(=O)NO)CC4)ccc3OCC)nc12 (racemic) | pIC50 | 6.00 to 8.00 |
| CCCc1nn(C)c2c(=O)[nH]c(-c3cc(Cc4ccc(C(=O)NO)s4)ccc3OCC)nc12 | pIC50 | 6.00 to 8.00 |
| CCCc1nn(C)c2c(=O)[nH]c(-c3cc(OCC4CCN(c5ncc(C(=O)NO)cn5)CC4)ccc3OCC)nc12 | pIC50 | 5.00 to 6.00 |
| CCCc1nn(C)c2c(=O)[nH]c(-c3cc(CN4CCN(c5ncc(C(=O)NO)cn5)CC4)ccc3OCC)nc12 | pIC50 | > 8.00 |
| CCCc1nn(C)c2c(=O)[nH]c(-c3cc(N(C)C4CCN(c5ncc(C(=O)NO)cn5)CC4)ccc3OCC)nc12 | pIC50 | > 8.00 |
| O=C(CCCN1CCC(N2CC(=O)N3[C@H](c4ccc5c(c4)OCO5)c4[nH]c5ccccc5c4C[C@@H]3C2=O)CC1)NO | pIC50 | 6.00 to 8.00 |
| CCCc1nn(C)c2c(=O)[nH]c(-c3cc(S(=O)(=O)N4CCN(c5ncc(C(=O)NO)cn5)CC4)ccc3OCC)nc12 | pIC50 | > 8.00 |

Where these numbers come from: patent US9573956B2
